Recorded relative viability by entry
System: 201T
Experiment: relative viability (nuclei count vs DMSO), 5 days (fraction); higher = more cells survive
Settings: first compound 2.53 µM
// response body must contain only the number

The cases that follow already have their relative viability on record.
Compound	relative viability
Nc1cccc2c1CN(C1CCC(=O)NC1=O)C2=O (configuration not stated) [Lenalidomide] + CCNC(=O)c1noc(-c2cc(C(C)C)c(O)cc2O)c1-c1ccc(CN2CCOCC2)cc1 [Luminespib] (partner 0.01 µM)	1.03
Nc1cccc2c1CN(C1CCC(=O)NC1=O)C2=O (configuration not stated) [Lenalidomide] + Cc1cc(Nc2cc(N3CCN(C)CC3)nc(Sc3ccc(NC(=O)C4CC4)cc3)n2)n[nH]1 [Tozasertib] (partner 0.1 µM)	1.02
Nc1cccc2c1CN(C1CCC(=O)NC1=O)C2=O (configuration not stated) [Lenalidomide] + O=C(c1cc(Cc2n[nH]c(=O)c3ccccc23)ccc1F)N1CCN(C(=O)C2CC2)CC1 [Olaparib] (partner 8 µM)	0.864
Nc1cccc2c1CN(C1CCC(=O)NC1=O)C2=O (configuration not stated) [Lenalidomide] + COc1cc2c(Oc3ccc(NC(=O)C4(C(=O)Nc5ccc(F)cc5)CC4)cc3F)ccnc2cc1OCCCN1CCOCC1 [Foretinib] (partner 0.25 µM)	1.23
Nc1cccc2c1CN(C1CCC(=O)NC1=O)C2=O (configuration not stated) [Lenalidomide] + CS(=O)(=O)CCNCc1ccc(-c2ccc3ncnc(Nc4ccc(OCc5cccc(F)c5)c(Cl)c4)c3c2)o1 [Lapatinib] (partner 2 µM)	1.02

Q. Given Nc1cccc2c1CN(C1CCC(=O)NC1=O)C2=O (configuration not stated) [Lenalidomide] + N=C(N)NC(=N)NCCc1ccccc1 [Phenformin] (partner 250 µM) , state its recorded relative viability.
A. 0.444

Q. Given Nc1cccc2c1CN(C1CCC(=O)NC1=O)C2=O (configuration not stated) [Lenalidomide] + COc1cccc2cc(-c3nc([C@H]4CC[C@H](C(=O)O)CC4)n4ncnc(N)c34)[nH]c12 [OSI-027] (partner 0.5 µM) , state its recorded relative viability.
A. 0.799
